The measured values listed here are drawn from PubChem BioAssay (NCATS).

- subject_of_test: Mitogen-activated protein kinase 10 (Mus musculus)
- assay_comment: JNK3 AlphaScreen Assay (AID 530);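 note: kinase came from lysate of stimulated human HepG2 cells; signal reports phosphorylation of biotinylated GST-cJun 1-79 at Ser73 with 10 µM ATP; % is set by controls: 0 for no effect and ±100 for the full control effect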
- reported_conditions: JNK3 lysate, c-Jun phosphorylation; series mostly up to 57.1 µM
- Text: NIH Chemical Genomics Center [NCGC] NIH Molecular Libraries Screening Centers Network [MLSCN] The c-jun N-terminal kinase (JNK) family are serine/threonine protein kinases that phosphorylate c-jun, a component of the transcription factor protein-1 (AP-1). […] A homogeneous AlphaScreen is developed to measure the activity of JNK3. […] The phosphorylation of a biotinylated c-jun substrate by JNK3 can be detected with an antibody raised against phosphorylated c-jun. […]
Results filed as inconclusive are left out. The source made the active and inactive calls. Calls come from the whole dose curve; as a rule, active = well fitted curve in either direction with a large enough effect (not every such curve was filed as active); inconclusive = small, poorly fitted or top-dose-only effect, or another doubt; inactive = flat fitted curve, though single readings scatter.

>  <compound_smiles>
O=Cc1ccc(Cl)cc1Cl

>  <activity change, negative = inhibition>
inactive

$$$$
>  <compound_smiles>
Cl/C=C/CCl

>  <activity change, negative = inhibition>
inactive

$$$$
>  <compound_smiles>
C[C@@H]1CC[C@@H]2N(C1)C[C@H]1[C@@](O)([C@H](O)C[C@]3(O)[C@H]4CC[C@H]5[C@]6(O)O[C@]4(C[C@]13O)[C@@]5(C)CC[C@@H]6O)[C@@]2(C)O

>  <activity change, negative = inhibition>
4.3% [at 11.4 µM] (inactive)

$$$$
>  <compound_smiles>
O=C(O)c1cccc(Cl)c1

>  <activity change, negative = inhibition>
inactive

$$$$
>  <compound_smiles>
CN(C)CCCc1cccnc1

>  <activity change, negative = inhibition>
3.96% [at 11.4 µM] (inactive)

$$$$
>  <compound_smiles>
COc1ccc2c(c1O)-c1cccc3c1[C@H](C2)N(C)CC3

>  <activity change, negative = inhibition>
inactive

$$$$
>  <compound_smiles>
COC(=O)c1ccccc1N

>  <activity change, negative = inhibition>
inactive

$$$$
>  <compound_smiles>
Nn1cnnc1

>  <activity change, negative = inhibition>
inactive

$$$$
>  <compound_smiles>
ClCCCCl

>  <activity change, negative = inhibition>
inactive

$$$$
>  <compound_smiles>
CC(=O)NNc1ccccc1

>  <activity change, negative = inhibition>
inactive

$$$$
>  <compound_smiles>
O=C(O)CNC(=O)c1ccc([As](=O)(O)O)cc1

>  <activity change, negative = inhibition>
36.2% [at 11.4 µM] (inactive)

$$$$
>  <compound_smiles>
CCBr

>  <activity change, negative = inhibition>
inactive

$$$$
>  <compound_smiles>
Cc1cnc[nH]1

>  <activity change, negative = inhibition>
inactive

$$$$
>  <compound_smiles>
CC(C)C[C@H](NP(=O)(O)O[C@@H]1O[C@@H](C)[C@@H](O)[C@@H](O)[C@H]1O)C(=O)N[C@@H](Cc1c[nH]c2ccccc12)C(=O)O

>  <activity change, negative = inhibition>
inactive

$$$$
>  <compound_smiles>
ClCCOCCCl

>  <activity change, negative = inhibition>
inactive

$$$$
>  <compound_smiles>
Nc1ccc([N+](=O)[O-])cc1[N+](=O)[O-]

>  <activity change, negative = inhibition>
inactive

$$$$
>  <compound_smiles>
O=C(O)[C@@H](O)[C@@H](O)[C@@H]1[O][Sb][O][C@@H]1CO

>  <activity change, negative = inhibition>
1.63% [at 11.4 µM] (inactive)

$$$$
>  <compound_smiles>
Cl/C=C/Cl

>  <activity change, negative = inhibition>
inactive

$$$$
>  <compound_smiles>
C[n+]1c(/C=C\c2ccc(O)c3ncccc23)[se]c2ccccc21

>  <activity change, negative = inhibition>
-13.6% [at 11.4 µM] (inactive)

$$$$
>  <compound_smiles>
CC(C)(C)C(=O)CP(=O)(O)O

>  <activity change, negative = inhibition>
5.32% [at 11.4 µM] (inactive)

$$$$
>  <compound_smiles>
Oc1cc(Cl)ccc1Cl

>  <activity change, negative = inhibition>
inactive

$$$$
>  <compound_smiles>
CC(C)c1ccc(C(O)(C(=O)O)c2ccc(C(C)C)cc2)cc1

>  <activity change, negative = inhibition>
5.33% [at 11.4 µM] (inactive)

$$$$
>  <compound_smiles>
C(=NCCN1CCOCC1)=NC1CCCCC1

>  <activity change, negative = inhibition>
3.92% [at 11.4 µM] (inactive)

$$$$
>  <compound_smiles>
Oc1cccc(Cl)c1Cl

>  <activity change, negative = inhibition>
inactive

$$$$
>  <compound_smiles>
Nc1c(Cl)cc([N+](=O)[O-])cc1Cl

>  <activity change, negative = inhibition>
inactive

$$$$
>  <compound_smiles>
N#CS.N=C=S.N=C=S.[Cu].[NH2-].[NH2-].[NH2-].[NH2-].c1ccc2ncccc2c1

>  <activity change, negative = inhibition>
0.42% [at 11.4 µM] (inactive)

$$$$
>  <compound_smiles>
CCOC(=O)c1ccc2[nH]c(-c3ccc(S(=O)(=O)F)cc3)cc(=O)c2c1

>  <activity change, negative = inhibition>
3.3% [at 11.4 µM] (inactive)

$$$$
>  <compound_smiles>
CCCN1CC[C@@H]2c3cc(O)ccc3CC[C@H]21

>  <activity change, negative = inhibition>
inactive

$$$$
>  <compound_smiles>
CC(C)OC(=O)Cc1ccccc1

>  <activity change, negative = inhibition>
inactive

$$$$
